Tested on: NCI/ADR-RES
procedureText: Reversal fold, ratio of doxorubicin IC50 to doxorubicin IC50 in presence of test compound for reversal of P-gp mediated multidrug resistance in doxorubicin resistant human MCF-7/ADR cells incubated for 48 hrs by CCK-8 assay; further: test concentration or dose not given here
Format: functional
Below, each of the molecules is paired with its reported Ratio IC50 value.

# querySmiles, Ratio IC50
data = [
    ("COc1cc2c(cc1OC)CN(C(=O)c1cccc([Se]c3c[nH]c4ccc(C(=O)Nc5ccc(F)cc5)cc34)c1)CC2", 6.9),
    ("COc1cc2c(cc1OC)CN(C(=O)c1cccc([Se]c3c[nH]c4ccccc34)c1)CC2", 4.12),
    ("COc1cc2c(cc1OC)CN(C(=O)c1cccc([Se]c3c[nH]c4ccc(-c5cnn(C)c5)cc34)c1)CC2", 271.7),
    ("COc1cc2c(cc1OC)CN(C(=O)c1cccc([Se]c3c[nH]c4ccc(C(=O)NC(C)C)cc34)c1)CC2", 3.9),
    ("COc1ccc(NC(=O)c2ccc([Se]c3c[nH]c4ccccc34)cc2)cc1OC", 3.98),
    ("O=C(NCc1ccccn1)c1cccc([Se]c2c[nH]c3ncccc23)c1", 2),
]
